# protocol: Electrochemical oxidation potential measurement, SHACV / fast scan CV
# Type: physicochemical
# conditionDescription: Table XIX; oxidation potential vs. Ag/AgCl; in V (unit assumed)
A collection of molecules and their measured Eox

{"molecule": "CCN1/C(=C/C=C/c2sc3ccccc3[n+]2CC)Sc2ccccc21.[I-]", "Eox": 0.902}
{"molecule": "CCN1/C(=C/C=C/c2sc3cc4ccccc4cc3[n+]2CC)Sc2cc3ccccc3cc21 [Dye D-109]", "Eox": 1.015}
{"molecule": "CCN1C(=CC=Cc2sc3cc4ccccc4nc3[n+]2CC)Sc2cc3ccccc3nc21", "Eox": 1.145}
{"molecule": "CCN1/C(=C\\C=C\\C2=[N+](CC)c3ccccc3C2(C)C)C(C)(C)c2ccccc21", "Eox": 1.088}
{"molecule": "CCN1/C(=C/C=C/c2sc3cc4ccccc4cc3[n+]2CC)Sc2cc3ccccc3cc21 [Dye D-160]", "Eox": 1.015}
